// provenance: a collection of fitness landscapes (doi:10.1016/j.celrep.2020.107928)

Listed next: entries and their corresponding one-hybrid fitness for binding parS DNA.
B1: Caulobacter ParB omega fusion; a variant is named by its letters at X, in order, B8GW30 (parent)
chain: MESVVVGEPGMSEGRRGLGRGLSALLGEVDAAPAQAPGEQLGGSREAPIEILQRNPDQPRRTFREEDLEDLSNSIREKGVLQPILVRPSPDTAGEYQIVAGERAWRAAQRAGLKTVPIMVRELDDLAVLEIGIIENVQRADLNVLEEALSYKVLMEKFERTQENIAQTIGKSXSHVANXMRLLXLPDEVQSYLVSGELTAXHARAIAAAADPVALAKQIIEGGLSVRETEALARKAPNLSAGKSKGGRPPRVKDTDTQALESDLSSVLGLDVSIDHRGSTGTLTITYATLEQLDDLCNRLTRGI

- Variants of: B1
- method-description: one-hybrid fitness for binding parS DNA (scaled: cognate 1, non-cognate 0); higher = stronger binding
- experimental-parameters: with parS DNA site
The full ranking holds about 81,000 sequences; the median of “one-hybrid fitness for binding parS DNA” is about -0.17, and the highest 2% start at about 0.51. What follows is part of a selection rich in the highest values, with near analogues and random picks from the rest.
Give a plain numeric answer without units written out.

>  <mutant>
RVAA

>  <one-hybrid fitness for binding parS DNA>
0.582

$$$$

### Prompt What value of one-hybrid fitness for binding parS DNA has been recorded for this entry: RRIT
### Response 0.693

### Prompt Item: RYVW
### Response 0.209

### Prompt Item: RVFA
### Response 0.611

### Prompt Item: RRPT
### Response 0.761
